Where do these numbers come from? They come from ChEMBL document CHEMBL1135775.

This section lists Ki readings for Sodium-dependent dopamine transporter (Homo sapiens).
MEASURED_ENDPOINT: Ki

>  <COMPOUND>
COc1cccc2c1C(O)(c1ccc(Cl)cc1)N1CCN=C21 (centres undefined)

>  <RESULT>
10.3 nM

$$$$
>  <COMPOUND>
OC1(c2ccccc2)c2ccccc2C2=NCCN21 (centres undefined)

>  <RESULT>
1070 nM

$$$$
>  <COMPOUND>
OC1(c2ccc3c(c2)OCO3)c2ccccc2C2=NCCCN21 (centres undefined)

>  <RESULT>
2.55 nM

$$$$
>  <COMPOUND>
OC1(c2ccc(Cl)cc2)c2cc(Cl)c(Cl)cc2C2=NCCN21 (centres undefined)

>  <RESULT>
1.05 nM

$$$$

----------
Documented Ratio across a set of molecules
ASSAY_METHOD_TEXT: Discrimination ratio against NET as ratio of IC50 to that of Ki uptake to NET.
Format: functional

>  <MOLECULE>
COc1ccc(C2(O)c3ccccc3C3=NCCCN32)cc1 (stereo not given)

>  <Ratio>
0.05

$$$$
>  <MOLECULE>
COc1cccc2c1C(O)(c1ccc(Cl)cc1)N1CCN=C21 (stereo not given)

>  <Ratio>
0.07

$$$$
>  <MOLECULE>
OC1(c2ccccc2)c2ccccc2C2=NCCN21 (stereo not given)

>  <Ratio>
0.03

$$$$
>  <MOLECULE>
COc1ccc2c(c1)C(O)(c1ccc(Cl)cc1)N1CCN=C21 (stereo not given)

>  <Ratio>
0.06

$$$$
>  <MOLECULE>
COc1cccc2c1C1=NCCN1C2(O)c1ccc(Cl)cc1 (stereo not given)

>  <Ratio>
0.7

$$$$
>  <MOLECULE>
OC1(c2ccc(Cl)cc2)c2ccccc2C2=NCCCN21 (stereo not given)

>  <Ratio>
2.2

$$$$
>  <MOLECULE>
OC1(c2ccc(Cl)cc2)c2cc(Cl)c(Cl)cc2C2=NCCN21 (stereo not given)

>  <Ratio>
0.3

$$$$
>  <MOLECULE>
OC1(c2ccc(Cl)cc2)c2cccc(F)c2C2=NCCN21 (stereo not given)

>  <Ratio>
5.6

$$$$
>  <MOLECULE>
Oc1ccc(C2(O)c3ccccc3C3=NCCCN32)cc1 (stereo not given)

>  <Ratio>
0.005

$$$$
>  <MOLECULE>
OC1(c2ccc3c(c2)OCO3)c2ccccc2C2=NCCCN21 (stereo not given)

>  <Ratio>
0.07

$$$$

----------
Documented Ratio across a set of compounds
ASSAY_METHOD_TEXT: Discrimination ratio against SERT as ratio of IC50 to that of Ki uptake to SERT.
Format: functional

>  <COMPOUND>
OC1(c2ccc3c(c2)OCO3)c2ccccc2C2=NCCCN21 (stereo unspecified)

>  <Ratio>
3.2

$$$$
>  <COMPOUND>
Oc1ccc(C2(O)c3ccccc3C3=NCCCN32)cc1 (stereo unspecified)

>  <Ratio>
0.8

$$$$
>  <COMPOUND>
COc1cccc2c1C(O)(c1ccc(Cl)cc1)N1CCN=C21 (stereo unspecified)

>  <Ratio>
1.8

$$$$
>  <COMPOUND>
OC1(c2ccccc2)c2ccccc2C2=NCCN21 (stereo unspecified)

>  <Ratio>
1.2

$$$$
>  <COMPOUND>
COc1ccc2c(c1)C(O)(c1ccc(Cl)cc1)N1CCN=C21 (stereo unspecified)

>  <Ratio>
1.9

$$$$
>  <COMPOUND>
OC1(c2ccc(Cl)cc2)c2cc(Cl)c(Cl)cc2C2=NCCN21 (stereo unspecified)

>  <Ratio>
0.3

$$$$
